All values here come from ChEMBL document CHEMBL1127520.

- SUBJECT OF TEST: Sodium-dependent dopamine transporter (Rattus norvegicus)
- Sequence (P23977 whole entry): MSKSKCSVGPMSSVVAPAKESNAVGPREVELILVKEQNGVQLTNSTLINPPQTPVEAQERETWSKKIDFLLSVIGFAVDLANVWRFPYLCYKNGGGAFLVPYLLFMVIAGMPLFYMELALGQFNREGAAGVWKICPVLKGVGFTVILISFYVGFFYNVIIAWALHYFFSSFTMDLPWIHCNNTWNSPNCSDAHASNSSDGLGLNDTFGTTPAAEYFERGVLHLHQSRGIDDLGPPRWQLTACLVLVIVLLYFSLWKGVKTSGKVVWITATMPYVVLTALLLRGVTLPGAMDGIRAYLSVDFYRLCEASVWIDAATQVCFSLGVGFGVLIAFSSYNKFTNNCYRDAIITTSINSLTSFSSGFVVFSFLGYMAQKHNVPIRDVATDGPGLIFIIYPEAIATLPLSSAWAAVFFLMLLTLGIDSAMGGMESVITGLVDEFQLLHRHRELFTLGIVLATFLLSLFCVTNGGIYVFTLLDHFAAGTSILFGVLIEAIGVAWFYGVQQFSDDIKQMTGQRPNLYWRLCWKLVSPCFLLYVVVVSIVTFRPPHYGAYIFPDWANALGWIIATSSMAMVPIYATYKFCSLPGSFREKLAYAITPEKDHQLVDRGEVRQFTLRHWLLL
- ASSAY DETAILS: Binding affinity for dopamine transporters in rat brain tissue.
- Format: tissue-based
Quick reference: Ki of the listed items.

COMPOUND	Ki, nM
CC(C)OC(=O)[C@@H]1C2CC[C@H](C[C@@H]1c1ccc(I)cc1)N2CCF	4.4
COC(=O)[C@H]1C(c2ccc(I)cc2)C[C@H]2CCC1N2CCF (stereo not given in full)	4
COC(=O)[C@H]1C(c2ccc(I)cc2)C[C@H]2CCC1N2CCCF (stereo not given in full)	3.5
COC(=O)[C@H]1C(c2ccc(I)cc2)C[C@H]2CCC1N2C (stereo not given in full)	1.4
CC(C)OC(=O)[C@@H]1C2CC[C@H](C[C@@H]1c1ccc(I)cc1)N2CCCF	1.2
